# Test system: Panc-1
# assay procedure: Cytotoxicity screening, Panc-1 cells
# Assay type: cell-based
# measurement setup: Homo sapiens; Panc-1; treatment at 10 μM, 24 h treatment then 96 h incubation; read-out: Inhibition: percent cell death normalized against controls
experimental readout: inhibition at 10 µM (%)
I only need the number, in %, no unit after it.

Short answer for OC(CSCC(O)c1cc(C(F)(F)F)cc(C(F)(F)F)c1)c1cc(C(F)(F)F)cc(C(F)(F)F)c1 (stereo not shown) : inhibition at 10 µM was 80

---

# Tested on: MIA PaCa-2
# assay procedure: Cytotoxicity screening, MIA PaCa-2 cells
# Type: cell-based
# measurement setup: Homo sapiens, read-out: IC50, drug dose to inhibit 50% cell proliferation
Measured IC50, listed per entry for reference.
I only need the number, in µM, no unit after it.

compound	IC50 / µM
COc1cc(/C=C/C(=O)CC(=O)/C=C/c2ccc(O)c(OC)c2)ccc1O [curcumin, reference compound]	9

Short answer for OC(CSCC(O)c1cc(C(F)(F)F)cc(C(F)(F)F)c1)c1cc(C(F)(F)F)cc(C(F)(F)F)c1 (centres unmarked) : IC50 was 3.7
